Source: PubChem BioAssay AID1963866

# Tested on: PDC KRAS tumor spheroids with HUVEC/MSC, viability
# assaySummary: Anticancer human tumor 349418-098-R-PDC patient-derived lung adenocarcinoma cell line growth inhibition [KRAS2]
# setupConditions: curve of first compound; second compound 10 µM
We begin with a simple list: items and their reported IC50.

Illustrative cases are given below, each with its answer.
{"columns": ["molecule", "IC50"],
 "data": [
  ["CC(=O)Nc1cccc(-n2c(=O)n(C3CC3)c(=O)c3c(Nc4ccc(I)cc4F)n(C)c(=O)c(C)c32)c1 + COc1cc2nc(C)nc(NC(C)c3cc(N)cc(C(F)(F)F)c3)c2cc1OC1CCOC1", "< 0.0001 µM"],
  ["CC1OCC2(CCN(c3cnc(Sc4ccnc(N)c4Cl)c(N)n3)CC2)C1N (stereo unspecified) + C=CC(=O)N1CCN(c2nc(=O)n(-c3c(C)ccnc3C(C)C)c3nc(-c4c(O)cccc4F)c(F)cc23)C(C)C1", "< 0.0316 µM"],
  ["CC1(C)CCC(CN2CCN(c3ccc(C(=O)NS(=O)(=O)c4ccc(NCC5CCOCC5)c([N+](=O)[O-])c4)c(Oc4cnc5[nH]ccc5c4)c3)CC2)=C(c2ccc(Cl)cc2)C1 + COc1cc2nc(C)nc(NC(C)c3cc(N)cc(C(F)(F)F)c3)c2cc1OC1CCOC1", "< 0.0316 µM"]
]}

## Task Requested read-out: IC50. Entry: CC(=O)Nc1cccc(-n2c(=O)n(C3CC3)c(=O)c3c(Nc4ccc(I)cc4F)n(C)c(=O)c(C)c32)c1 + CNCc1ccccc1-c1csc(C(C)Nc2nc(C)nc3cc(OC)c(OC)cc23)c1
## Result < 0.0001 µM

## Task Return reported IC50; argument: COc1cc(Nc2ncc3c(n2)-c2ccc(Cl)cc2C(c2c(F)cccc2OC)=NC3)ccc1C(=O)O + CNCc1ccccc1-c1csc(C(C)Nc2nc(C)nc3cc(OC)c(OC)cc23)c1
## Result < 0.0316 µM

## Task What does the data say about its IC50? Entry: O=C(c1cc(Cc2n[nH]c(=O)c3ccccc23)ccc1F)N1CCN(C(=O)C2CC2)CC1 + CC1OCC2(CCN(c3cnc(Sc4ccnc(N)c4Cl)c(N)n3)CC2)C1N
## Result 1.45 µM

## Task Consider the molecule shown here: CC1OCC2(CCN(c3cnc(Sc4ccnc(N)c4Cl)c(N)n3)CC2)C1N (stereo unspecified) + CNCc1ccccc1-c1csc(C(C)Nc2nc(C)nc3cc(OC)c(OC)cc23)c1 What is its recorded IC50?
## Result < 0.0316 µM

## Task Please report the recorded IC50 for COc1cc(Nc2ncc3c(n2)-c2ccc(Cl)cc2C(c2c(F)cccc2OC)=NC3)ccc1C(=O)O + COc1cc2nc(C)nc(NC(C)c3cc(N)cc(C(F)(F)F)c3)c2cc1OC1CCOC1 .
## Result < 0.0316 µM

## Task Name the recorded IC50 for Cn1ncnc1[C@H]1c2n[nH]c(=O)c3cc(F)cc(c23)N[C@@H]1c1ccc(F)cc1 + CNCc1ccccc1-c1csc(C(C)Nc2nc(C)nc3cc(OC)c(OC)cc23)c1 .
## Result < 0.000316 µM

## Task Reported IC50 for CC(C)n1nc(-c2ccc3oc(N)nc3c2)c2c(N)ncnc21 + CNCc1ccccc1-c1csc(C(C)Nc2nc(C)nc3cc(OC)c(OC)cc23)c1 : what is it?
## Result < 0.000316 µM

## Task Recorded IC50 of COC(=O)c1ccc2c(C(=Nc3ccc(N(C)C(=O)CN4CCN(C)CC4)cc3)c3ccccc3)c(O)[nH]c2c1 + CNCc1ccccc1-c1csc(C(C)Nc2nc(C)nc3cc(OC)c(OC)cc23)c1 , please.
## Result < 0.0316 µM

###

# Test system: PDC KRAS tumor spheroids with HUVEC/MSC, viability
# assaySummary: Anticancer human tumor 349418-098-R-PDC cell line growth inhibition [KRAS2]; active = viability on the fitted dose curve at most 10% of control; inactive = the rest;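 further: spheroids exposed to compounds for seven days before readout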
# setupConditions: second compound 10 µM; first compound 0.01 µM
Response enum: active, inactive

Please review the following examples before continuing.
{"columns": ["molecule", "classification"],
 "data": [
  ["CC(C)n1nc(-c2ccc3oc(N)nc3c2)c2c(N)ncnc21 + CC1OCC2(CCN(c3cnc(Sc4ccnc(N)c4Cl)c(N)n3)CC2)C1N", "active"],
  ["CN(C)C/C=C/C(=O)Nc1cc2c(Nc3ccc(F)c(Cl)c3)ncnc2cc1O[C@H]1CCOC1 + CNCc1ccccc1-c1csc(C(C)Nc2nc(C)nc3cc(OC)c(OC)cc23)c1", "active"],
  ["CC(=O)OC12COC1CC(O)C1(C)C(=O)C(O)C3=C(C)C(OC(=O)C(O)C(NC(=O)OC(C)(C)C)c4ccccc4)CC(O)(C(OC(=O)c4ccccc4)C21)C3(C)C (stereo not given) + CC1OCC2(CCN(c3cnc(Sc4ccnc(N)c4Cl)c(N)n3)CC2)C1N", "inactive"],
  ["CC(=O)Nc1cccc(-n2c(=O)n(C3CC3)c(=O)c3c(Nc4ccc(I)cc4F)n(C)c(=O)c(C)c32)c1 + C=CC(=O)N1CCN(c2nc(=O)n(-c3c(C)ccnc3C(C)C)c3nc(-c4c(O)cccc4F)c(F)cc23)C(C)C1", "inactive"],
  ["CC(C)n1nc(-c2ccc3oc(N)nc3c2)c2c(N)ncnc21 + COc1cc2nc(C)nc(NC(C)c3cc(N)cc(C(F)(F)F)c3)c2cc1OC1CCOC1", "active"],
  ["CC(=O)Nc1cccc(-n2c(=O)n(C3CC3)c(=O)c3c(Nc4ccc(I)cc4F)n(C)c(=O)c(C)c32)c1 + CC1OCC2(CCN(c3cnc(Sc4ccnc(N)c4Cl)c(N)n3)CC2)C1N", "active"],
  ["CC(=O)OC12COC1CC(O)C1(C)C(=O)C(O)C3=C(C)C(OC(=O)C(O)C(NC(=O)OC(C)(C)C)c4ccccc4)CC(O)(C(OC(=O)c4ccccc4)C21)C3(C)C (stereo not given) + CNCc1ccccc1-c1csc(C(C)Nc2nc(C)nc3cc(OC)c(OC)cc23)c1", "active"],
  ["CC(=O)OC12COC1CC(O)C1(C)C(=O)C(O)C3=C(C)C(OC(=O)C(O)C(NC(=O)OC(C)(C)C)c4ccccc4)CC(O)(C(OC(=O)c4ccccc4)C21)C3(C)C (stereo not given) + C=CC(=O)N1CCN(c2nc(=O)n(-c3c(C)ccnc3C(C)C)c3nc(-c4c(O)cccc4F)c(F)cc23)C(C)C1", "inactive"],
  ["CC(C)n1nc(-c2ccc3oc(N)nc3c2)c2c(N)ncnc21 + C=CC(=O)N1CCN(c2nc(=O)n(-c3c(C)ccnc3C(C)C)c3nc(-c4c(O)cccc4F)c(F)cc23)C(C)C1", "active"]
]}

Now turn to the next molecule.
## Task What call does the record list for CC(=O)Nc1cccc(-n2c(=O)n(C3CC3)c(=O)c3c(Nc4ccc(I)cc4F)n(C)c(=O)c(C)c32)c1 + COc1cc2nc(C)nc(NC(C)c3cc(N)cc(C(F)(F)F)c3)c2cc1OC1CCOC1 ?
## Result active

###

# System: PDC KRAS tumor spheroids with HUVEC/MSC, viability
# assaySummary: Anticancer human tumor 349418-098-R-PDC cell line growth inhibition [KRAS2]; active means viability on the fitted dose curve at most 10% of control; inactive means the rest;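 further: spheroids exposed to compounds for seven days before readout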
# setupConditions: second compound 0.316 µM; first compound 0.0316 µM
Answer with one of the outcomes active, inactive

Known results for compounds:
{"columns": ["compound", "targetEntity", "classification"],
 "data": [
  ["COC(=O)c1ccc2c(C(=Nc3ccc(N(C)C(=O)CN4CCN(C)CC4)cc3)c3ccccc3)c(O)[nH]c2c1 + C=CC(=O)N1CCN(c2nc(=O)n(-c3c(C)ccnc3C(C)C)c3nc(-c4c(O)cccc4F)c(F)cc23)C(C)C1", "PDC KRAS tumor spheroids with HUVEC/MSC, viability", "inactive"],
  ["CC(C)n1nc(-c2ccc3oc(N)nc3c2)c2c(N)ncnc21 + C=CC(=O)N1CCN(c2nc(=O)n(-c3c(C)ccnc3C(C)C)c3nc(-c4c(O)cccc4F)c(F)cc23)C(C)C1", "PDC KRAS tumor spheroids with HUVEC/MSC, viability", "active"],
  ["O=C(c1cc(Cc2n[nH]c(=O)c3ccccc23)ccc1F)N1CCN(C(=O)C2CC2)CC1 + C=CC(=O)N1CCN(c2nc(OCC3CCCN3C)nc3c2CCN(c2cccc4cccc(C)c24)C3)CC1CC#N", "PDC KRAS tumor spheroids with HUVEC/MSC, viability", "inactive"],
  ["COc1cc(Nc2ncc3c(n2)-c2ccc(Cl)cc2C(c2c(F)cccc2OC)=NC3)ccc1C(=O)O + C=CC(=O)N1CCN(c2nc(OCC3CCCN3C)nc3c2CCN(c2cccc4cccc(C)c24)C3)CC1CC#N", "PDC KRAS tumor spheroids with HUVEC/MSC, viability", "inactive"],
  ["O=C(c1cc(Cc2n[nH]c(=O)c3ccccc23)ccc1F)N1CCN(C(=O)C2CC2)CC1 + CC1OCC2(CCN(c3cnc(Sc4ccnc(N)c4Cl)c(N)n3)CC2)C1N", "PDC KRAS tumor spheroids with HUVEC/MSC, viability", "inactive"],
  ["CCNC(=O)CC1N=C(c2ccc(Cl)cc2)c2cc(OC)ccc2-n2c(C)nnc21 (stereo unspecified) + C=CC(=O)N1CCN(c2nc(=O)n(-c3c(C)ccnc3C(C)C)c3nc(-c4c(O)cccc4F)c(F)cc23)C(C)C1", "PDC KRAS tumor spheroids with HUVEC/MSC, viability", "inactive"],
  ["Cn1ncnc1[C@H]1c2n[nH]c(=O)c3cc(F)cc(c23)N[C@@H]1c1ccc(F)cc1 + C=CC(=O)N1CCN(c2nc(=O)n(-c3c(C)ccnc3C(C)C)c3nc(-c4c(O)cccc4F)c(F)cc23)C(C)C1", "PDC KRAS tumor spheroids with HUVEC/MSC, viability", "inactive"],
  ["CC(=O)Nc1cccc(-n2c(=O)n(C3CC3)c(=O)c3c(Nc4ccc(I)cc4F)n(C)c(=O)c(C)c32)c1 + C=CC(=O)N1CCN(c2nc(OCC3CCCN3C)nc3c2CCN(c2cccc4cccc(C)c24)C3)CC1CC#N", "PDC KRAS tumor spheroids with HUVEC/MSC, viability", "active"]
]}

## Task For CN(C)C/C=C/C(=O)Nc1cc2c(Nc3ccc(F)c(Cl)c3)ncnc2cc1O[C@H]1CCOC1 + C=CC(=O)N1CCN(c2nc(=O)n(-c3c(C)ccnc3C(C)C)c3nc(-c4c(O)cccc4F)c(F)cc23)C(C)C1 , which call appears in the assay record?
## Result inactive

## Task Would you mind telling me which call this test gave CCNC(=O)CC1N=C(c2ccc(Cl)cc2)c2cc(OC)ccc2-n2c(C)nnc21 (stereo unspecified) + CNCc1ccccc1-c1csc(C(C)Nc2nc(C)nc3cc(OC)c(OC)cc23)c1 ?
## Result inactive

## Task # fetch the recorded call for Cn1ncnc1[C@H]1c2n[nH]c(=O)c3cc(F)cc(c23)N[C@@H]1c1ccc(F)cc1 + C=CC(=O)N1CCN(c2nc(OCC3CCCN3C)nc3c2CCN(c2cccc4cccc(C)c24)C3)CC1CC#N here
## Result inactive

## Task Please let me know the test result on file for CC1OCC2(CCN(c3cnc(Sc4ccnc(N)c4Cl)c(N)n3)CC2)C1N (stereo unspecified) + C=CC(=O)N1CCN(c2nc(OCC3CCCN3C)nc3c2CCN(c2cccc4cccc(C)c24)C3)CC1CC#N .
## Result inactive

## Task Record lookup: outcome of this test for CN(C)C/C=C/C(=O)Nc1cc2c(Nc3ccc(F)c(Cl)c3)ncnc2cc1O[C@H]1CCOC1 + COc1cc2nc(C)nc(NC(C)c3cc(N)cc(C(F)(F)F)c3)c2cc1OC1CCOC1 ?
## Result inactive

## Task Please share the test call associated with COc1cc2nccc(Oc3ccc(NC(=O)C4(C(=O)Nc5ccc(F)cc5)CC4)cc3)c2cc1OC + CNCc1ccccc1-c1csc(C(C)Nc2nc(C)nc3cc(OC)c(OC)cc23)c1 .
## Result inactive
